# test-method-notes: Multicomponent pharmacokinetics in rat plasma after i.v. safflower injection (SI)
# assay-context: male, Sprague-Dawley, rat, in vivo, iv, 2 ml/kg
reported-metric: MRT inf (min)
# value in min; strip the unit string

For the compound COc1cc(/C=C/CO)cc(OC)c1O[C@@H]1O[C@H](CO)[C@@H](O)[C@H](O)[C@H]1O , give its measured MRT inf value.
45

---

Can you tell me 10h in auto-sampler vials RE for the items I'm about to list?
# test-method-notes: Stability of 6 compounds of SI in rat plasma
# assay-context: extracted rat plasma, spiked 10000 ng/mL
Dear colleague, please return just the value in %, with no unit written.

Specify measured 10h in auto-sampler vials RE for COc1cc(/C=C/CO)cc(OC)c1O[C@@H]1O[C@H](CO)[C@@H](O)[C@H](O)[C@H]1O .
1.41

Given the compound C[C@@H]1O[C@@H](OC[C@H]2O[C@@H](Oc3c(-c4ccc(O)c(O)c4)oc4cc(O)cc(O)c4c3=O)[C@H](O)[C@@H](O)[C@@H]2O)[C@H](O)[C@H](O)[C@H]1O , write its reported 10h in auto-sampler vials RE.
-5.96

Quickly give me recorded 10h in auto-sampler vials RE for O=C(O)[C@H]1O[C@@H](Oc2cc3oc(-c4ccc(O)cc4)cc(=O)c3c(O)c2O)[C@H](O)[C@@H](O)[C@@H]1O
-1.48

Specify measured 10h in auto-sampler vials RE for O=Cc1ccc(O)cc1 [p-HBA, p-hydroxybenzaldehyde] .
4.23

Consider the compound O=C(O)/C=C/c1ccc(O)cc1 . State its measured 10h in auto-sampler vials RE.
-4.10

---

# test-method-notes: Stability of 6 compounds of SI in rat plasma
# assay-context: extracted rat plasma, spiked 40 ng/mL
reported-metric: 10h in auto-sampler vials RE (%)
Output spec: scalar in %, unitless text.

Identify measured 10h in auto-sampler vials RE associated with C[C@@H]1O[C@@H](OC[C@H]2O[C@@H](Oc3c(-c4ccc(O)c(O)c4)oc4cc(O)cc(O)c4c3=O)[C@H](O)[C@@H](O)[C@@H]2O)[C@H](O)[C@H](O)[C@H]1O
6.25

Answer with the recorded 10h in auto-sampler vials RE for the compound listed here: COc1cc(/C=C/CO)cc(OC)c1O[C@@H]1O[C@H](CO)[C@@H](O)[C@H](O)[C@H]1O
-12.50

Tell me measured 10h in auto-sampler vials RE for O=C(O)[C@H]1O[C@@H](Oc2cc3oc(-c4ccc(O)cc4)cc(=O)c3c(O)c2O)[C@H](O)[C@@H](O)[C@@H]1O please.
10.63

Indicate its recorded 10h in auto-sampler vials RE; the compound in question is O=Cc1ccc(O)cc1 [p-HBA, p-hydroxybenzaldehyde]
-2.50

---

# test-method-notes: Multicomponent pharmacokinetics in rat plasma after i.v. safflower injection (SI)
# assay-context: male, Sprague-Dawley, rat, plasma, iv, 1 ml/kg
reported-metric: half-life (min)
Your answer should be a plain number; it is taken to be in min.

For the compound O=C(O)/C=C/c1ccc(O)cc1 , report half-life.
4.8

---

# test-method-notes: Multicomponent pharmacokinetics in rat plasma after i.v. safflower injection (SI)
# assay-context: male, Sprague-Dawley, rat, plasma, iv, 2 ml/kg
Can you tell me Vd for the items I'm about to list?
Entry rule: numbers only, all in L/kg.

Determine from records and report Vd for O=C(O)[C@H]1O[C@@H](Oc2cc3oc(-c4ccc(O)cc4)cc(=O)c3c(O)c2O)[C@H](O)[C@@H](O)[C@@H]1O
0.05

Return value of Vd for input O=Cc1ccc(O)cc1 [p-HBA, p-hydroxybenzaldehyde] , no commentary.
0.35

Hello, please tell me recorded Vd for this one: O=C(O)/C=C/c1ccc(O)cc1
0.13

---

# test-method-notes: Multicomponent pharmacokinetics in rat plasma after i.v. safflower injection (SI)
# assay-context: male, Sprague-Dawley, rat, plasma, iv, 4 ml/kg
reported-metric: clearance (mL/min/kg)
Write the value in mL/min/kg as a bare number.

Consider the molecule O=C(O)/C=C/c1ccc(O)cc1 . State its measured clearance.
7.5

State its clearance for this molecule: O=Cc1ccc(O)cc1 [p-HBA, p-hydroxybenzaldehyde]
16.5

Provide only the value of recorded clearance for C[C@@H]1O[C@@H](OC[C@H]2O[C@@H](Oc3c(-c4ccc(O)c(O)c4)oc4cc(O)cc(O)c4c3=O)[C@H](O)[C@@H](O)[C@@H]2O)[C@H](O)[C@H](O)[C@H]1O
14.3

Tell me measured clearance for O=C(O)[C@H]1O[C@@H](Oc2cc3oc(-c4ccc(O)cc4)cc(=O)c3c(O)c2O)[C@H](O)[C@@H](O)[C@@H]1O please.
0.167

---

# test-method-notes: Multicomponent pharmacokinetics in rat plasma after i.v. safflower injection (SI)
# assay-context: male, Sprague-Dawley, rat, in vivo, iv, 4 ml/kg
reported-metric: MRT inf (min)
Please give a number only; it is taken to be in min.

Report MRT inf, nothing else, for this compound: COc1cc(/C=C/CO)cc(OC)c1O[C@@H]1O[C@H](CO)[C@@H](O)[C@H](O)[C@H]1O [SYR, syringin]
42.6

---

# test-method-notes: Multicomponent pharmacokinetics in rat plasma after i.v. safflower injection (SI)
# assay-context: male, Sprague-Dawley, rat, plasma, iv, 4 ml/kg
Assign MRT inf to each entry below.
Please respond with the number in min and leave the unit unwritten.

Supply measured MRT inf of C[C@@H]1O[C@@H](OC[C@H]2O[C@@H](Oc3c(-c4ccc(O)c(O)c4)oc4cc(O)cc(O)c4c3=O)[C@H](O)[C@@H](O)[C@@H]2O)[C@H](O)[C@H](O)[C@H]1O in your reply.
21.6

Identify measured MRT inf associated with O=C(O)[C@H]1O[C@@H](Oc2cc3oc(-c4ccc(O)cc4)cc(=O)c3c(O)c2O)[C@H](O)[C@@H](O)[C@@H]1O
178

Kindly indicate its recorded MRT inf. Item: O=Cc1ccc(O)cc1 [p-HBA, p-hydroxybenzaldehyde]
31.8

Entry O=C(O)/C=C/c1ccc(O)cc1 needs its MRT inf filled in; supply it.
19.2

---

# test-method-notes: Multicomponent pharmacokinetics in rat plasma after i.v. safflower injection (SI)
# assay-context: male, Sprague-Dawley, rat, plasma, iv, 2 ml/kg
reported-metric: half-life (min)
Write the value in min as a bare number.

Identify half-life associated with the compound O=C(O)[C@H]1O[C@@H](Oc2cc3oc(-c4ccc(O)cc4)cc(=O)c3c(O)c2O)[C@H](O)[C@@H](O)[C@@H]1O
155

Retrieve half-life measured for O=Cc1ccc(O)cc1 [p-HBA, p-hydroxybenzaldehyde] and print it.
28.8

// fetch half-life given entry O=C(O)/C=C/c1ccc(O)cc1
13.2

---

# test-method-notes: Stability in diluted SI at room temperature
# assay-context: analyzed at 0, 2, 4, 8, 12, 24, and 48 h
reported-metric: Stability RSD (%)
State the answer as a number, implicitly in %.

Identify measured Stability RSD corresponding to O=C(O)/C=C/c1ccccc1 [trans-cinnamic acid]
1.86

Tell me Stability RSD reported for O=C(O)[C@H]1O[C@@H](Oc2cc3oc(-c4ccc(O)cc4)cc(=O)c3c(O)c2O)[C@H](O)[C@@H](O)[C@@H]1O
4.42

Look up Stability RSD of O=Cc1ccc(O)cc1 [p-HBA, p-hydroxybenzaldehyde] and report it.
4.11

Provide measured Stability RSD value, entry: O=c1ccn([C@@H]2O[C@H](CO)[C@@H](O)[C@H]2O)c(=O)[nH]1
2.81
